Tested on: C. elegans CB211 lev-1(e211) IV.
Test: Chitinase assay (reproductive capacity)
Type: in vivo
Details: Caenorhabditis elegans; levamisole-resistant strain
Measurement Type: IC50 (µM)

INSERT INTO assay_data (record_smiles, assayed_system, observed_measurement) VALUES
  ('Clc1ccc(-c2ccc3[nH]ccc3c2)cc1', 'C. elegans CB211 lev-1(e211) IV.', 6.8),
  ('Fc1ccc(-c2ccc3[nH]ccc3c2)cc1', 'C. elegans CB211 lev-1(e211) IV.', 9.02),
  ('CC(C)Oc1cccc(-c2ccc3[nH]ccc3c2)c1', 'C. elegans CB211 lev-1(e211) IV.', 8.86),
  ('FC(F)(F)Oc1ccc(-c2ccc3[nH]ccc3c2)cc1', 'C. elegans CB211 lev-1(e211) IV.', 10.1),
  ('CCOc1cccc(-c2ccc3[nH]ccc3c2)c1', 'C. elegans CB211 lev-1(e211) IV.', 9.65),
  ('CCOc1cc(-c2ccc3[nH]ccc3c2)ccc1Cl', 'C. elegans CB211 lev-1(e211) IV.', 9.36),
  ('CCCOc1cccc(-c2ccc3[nH]ccc3c2)c1', 'C. elegans CB211 lev-1(e211) IV.', 8.69),
  ('CCCOc1ccc(-c2ccc3[nH]ccc3c2)cc1', 'C. elegans CB211 lev-1(e211) IV.', 8.8),
  ('CC(C)Oc1cc(-c2ccc3[nH]ccc3c2)ccc1Cl', 'C. elegans CB211 lev-1(e211) IV.', 9.85);

###

System: Arabidopsis thaliana Col-0
Assay: Germination rate and phytotoxicity
Assay type: in vivo
Conditions: 10 µM; 5 DPS
Measurement Type: average fraction of germinated seeds
Number, no unit, nothing else.

INSERT INTO results (record_smiles, measurement_type, observed_measurement) VALUES
  ('CCCOc1ccc(-c2ccc3[nH]ccc3c2)cc1', 'average fraction of germinated seeds', 0.93);

Query compound follows.
Q: Quick check: average fraction of germinated seeds of "CCOc1cccc(-c2ccc3[nH]ccc3c2)c1" ?
A: 0.95

###

System: Arabidopsis thaliana Col-0
Test: Germination rate and phytotoxicity
Assay type: in vivo
Conditions: 5 µM; 10 DPS
Some compounds, each annotated with its measured plant weight.
The answer is to be given in mg; state only the numeric part.

INSERT INTO assay_data (record_smiles, measurement_type, reading_unit, observed_measurement) VALUES
  ('Clc1ccc(-c2ccc3[nH]ccc3c2)cc1', 'plant weight', 'mg', 32.28),
  ('CC(C)Oc1cc(-c2ccc3[nH]ccc3c2)ccc1Cl', 'plant weight', 'mg', 33.97),
  ('CCOc1cc(-c2ccc3[nH]ccc3c2)ccc1Cl', 'plant weight', 'mg', 30.25);

Q: Quick check: plant weight of "CCCOc1ccc(-c2ccc3[nH]ccc3c2)cc1" ?
A: 37.8

Q: Quick check: plant weight of "CC(C)Oc1cccc(-c2ccc3[nH]ccc3c2)c1" ?
A: 35.21

Q: Quick check: plant weight of "CCCOc1cccc(-c2ccc3[nH]ccc3c2)c1" ?
A: 32.51

Q: Quick check: plant weight of "FC(F)(F)Oc1ccc(-c2ccc3[nH]ccc3c2)cc1" ?
A: 34.37

Q: Quick check: plant weight of "Fc1ccc(-c2ccc3[nH]ccc3c2)cc1" ?
A: 30.62

Q: Quick check: plant weight of "CC(C)c1ccc(-c2ccc3[nH]ccc3c2)cc1" ?
A: 35.01

Q: Quick check: plant weight of "CCOc1cccc(-c2ccc3[nH]ccc3c2)c1" ?
A: 33.97

###

Tested on: age unsynchronized Ditylenchus destructor
Test: Motility on WMicrotracker ONE
Format: in vivo
Conditions: 10 µM; 48 h
Measurement Type: average activity counts
Number, no unit, nothing else.

The following compounds have reported results that may help.
INSERT INTO measurements (record_smiles, observed_measurement) VALUES
  ('FC(F)(F)Oc1ccc(-c2ccc3[nH]ccc3c2)cc1', 220),
  ('Fc1ccc(-c2ccc3[nH]ccc3c2)cc1', 200);

Q: Lookup: average activity counts / age unsynchronized Ditylenchus destructor / "CC(C)Oc1cccc(-c2ccc3[nH]ccc3c2)c1"
A: 201

Q: Lookup: average activity counts / age unsynchronized Ditylenchus destructor / "CCCOc1ccc(-c2ccc3[nH]ccc3c2)cc1"
A: 200

Q: Lookup: average activity counts / age unsynchronized Ditylenchus destructor / "Clc1ccc(-c2ccc3[nH]ccc3c2)cc1"
A: 227

Q: Lookup: average activity counts / age unsynchronized Ditylenchus destructor / "CC(C)Oc1cc(-c2ccc3[nH]ccc3c2)ccc1Cl"
A: 235

###

Tested on: Skin fibroblasts (BJ)
Experiment: Resazurin assay, 3-day treatment
Format: cell-based, human
Conditions: 10 µM; BJ
Measurement Type: Average viability (signal intensity relative to control)
Number, no unit, nothing else.

The following compounds have reported results that may help.
INSERT INTO measurements (compound, observed_measurement) VALUES
  ('CCOc1cc(-c2ccc3[nH]ccc3c2)ccc1Cl [i-25]', 0.92),
  ('CCCOc1cccc(-c2ccc3[nH]ccc3c2)c1 [i-12]', 0.96),
  ('CC(C)Oc1cccc(-c2ccc3[nH]ccc3c2)c1 [i-15]', 1),
  ('Oc1cccc(-c2ccc3[nH]ccc3c2)c1 [i-3]', 1),
  ('CCOc1cccc(-c2ccc3[nH]ccc3c2)c1 [i-9]', 0.92);

Q: Quick check: Average viability (signal intensity relative to control) of FC(F)(F)Oc1ccc(-c2ccc3[nH]ccc3c2)cc1 [i-21] ?
A: 0.94

###

System: Skin fibroblasts (BJ)
Experiment: Resazurin assay, 3-day treatment
Format: cell-based, human
Settings: 40 µM; BJ
Measurement Type: Average viability (signal intensity relative to control)
Number, no unit, nothing else.

The following compounds have reported results that may help.
INSERT INTO assay_data (record_smiles, assayed_system, observed_measurement) VALUES
  ('CC(C)Oc1cccc(-c2ccc3[nH]ccc3c2)c1', 'Skin fibroblasts (BJ)', 0.98),
  ('Oc1cccc(-c2ccc3[nH]ccc3c2)c1', 'Skin fibroblasts (BJ)', 0.89),
  ('CCOc1cccc(-c2ccc3[nH]ccc3c2)c1', 'Skin fibroblasts (BJ)', 0.94),
  ('CC(C)c1ccc(-c2ccc3[nH]ccc3c2)cc1', 'Skin fibroblasts (BJ)', 0.82),
  ('Fc1ccc(-c2ccc3[nH]ccc3c2)cc1', 'Skin fibroblasts (BJ)', 0.96);

Q: Quick check: Average viability (signal intensity relative to control) of "CCOc1cc(-c2ccc3[nH]ccc3c2)ccc1Cl" ?
A: 0.74

Q: Quick check: Average viability (signal intensity relative to control) of "Clc1ccc(-c2ccc3[nH]ccc3c2)cc1" ?
A: 1

Q: Quick check: Average viability (signal intensity relative to control) of "CC(C)Oc1cc(-c2ccc3[nH]ccc3c2)ccc1Cl" ?
A: 0.89

Q: Quick check: Average viability (signal intensity relative to control) of "CCCOc1cccc(-c2ccc3[nH]ccc3c2)c1" ?
A: 0.96

Q: Quick check: Average viability (signal intensity relative to control) of "FC(F)(F)Oc1ccc(-c2ccc3[nH]ccc3c2)cc1" ?
A: 0.87

Q: Quick check: Average viability (signal intensity relative to control) of "CCCOc1ccc(-c2ccc3[nH]ccc3c2)cc1" ?
A: 0.98

###

System: age unsynchronized Ditylenchus destructor
Assay: Motility on WMicrotracker ONE
Format: in vivo
Conditions: 100 µM group; initial (prior to the treatment)
Some molecules, each annotated with its measured average activity counts.
Number, no unit, nothing else.

Q: Quick check: average activity counts of "CCCOc1ccc(-c2ccc3[nH]ccc3c2)cc1" ?
A: 239

Q: Quick check: average activity counts of "CC(C)Oc1cc(-c2ccc3[nH]ccc3c2)ccc1Cl" ?
A: 213

Q: Quick check: average activity counts of "Fc1ccc(-c2ccc3[nH]ccc3c2)cc1" ?
A: 226

Q: Quick check: average activity counts of "CC(C)Oc1cccc(-c2ccc3[nH]ccc3c2)c1" ?
A: 217

###

Tested on: Skin fibroblasts (BJ)
Assay: Resazurin assay, 3-day treatment
Assay type: cell-based, human
Details: 20 µM; BJ
Some compounds, each annotated with its measured Average viability (signal intensity relative to control).
Number, no unit, nothing else.

INSERT INTO results (compound, assayed_system, observed_measurement) VALUES
  ('Fc1ccc(-c2ccc3[nH]ccc3c2)cc1 [i-20]', 'Skin fibroblasts (BJ)', 0.98),
  ('CC(C)c1ccc(-c2ccc3[nH]ccc3c2)cc1 [i-17]', 'Skin fibroblasts (BJ)', 0.92),
  ('Oc1cccc(-c2ccc3[nH]ccc3c2)c1 [i-3]', 'Skin fibroblasts (BJ)', 0.97),
  ('CC(C)Oc1cccc(-c2ccc3[nH]ccc3c2)c1 [i-15]', 'Skin fibroblasts (BJ)', 1.03),
  ('CCOc1cccc(-c2ccc3[nH]ccc3c2)c1 [i-9]', 'Skin fibroblasts (BJ)', 0.97),
  ('Clc1ccc(-c2ccc3[nH]ccc3c2)cc1 [i-19]', 'Skin fibroblasts (BJ)', 1.02);

Query compound follows.
Q: Quick check: Average viability (signal intensity relative to control) of CC(C)Oc1cc(-c2ccc3[nH]ccc3c2)ccc1Cl [i-27] ?
A: 0.92
